Measured values drawn from patent US20150005281A1 for this set.

Molecular target: TYK2 (Homo sapiens, UniProt P29597)
Construct: endogenous in cells; mixed lysate 1:2
Sequence (P29597 whole entry): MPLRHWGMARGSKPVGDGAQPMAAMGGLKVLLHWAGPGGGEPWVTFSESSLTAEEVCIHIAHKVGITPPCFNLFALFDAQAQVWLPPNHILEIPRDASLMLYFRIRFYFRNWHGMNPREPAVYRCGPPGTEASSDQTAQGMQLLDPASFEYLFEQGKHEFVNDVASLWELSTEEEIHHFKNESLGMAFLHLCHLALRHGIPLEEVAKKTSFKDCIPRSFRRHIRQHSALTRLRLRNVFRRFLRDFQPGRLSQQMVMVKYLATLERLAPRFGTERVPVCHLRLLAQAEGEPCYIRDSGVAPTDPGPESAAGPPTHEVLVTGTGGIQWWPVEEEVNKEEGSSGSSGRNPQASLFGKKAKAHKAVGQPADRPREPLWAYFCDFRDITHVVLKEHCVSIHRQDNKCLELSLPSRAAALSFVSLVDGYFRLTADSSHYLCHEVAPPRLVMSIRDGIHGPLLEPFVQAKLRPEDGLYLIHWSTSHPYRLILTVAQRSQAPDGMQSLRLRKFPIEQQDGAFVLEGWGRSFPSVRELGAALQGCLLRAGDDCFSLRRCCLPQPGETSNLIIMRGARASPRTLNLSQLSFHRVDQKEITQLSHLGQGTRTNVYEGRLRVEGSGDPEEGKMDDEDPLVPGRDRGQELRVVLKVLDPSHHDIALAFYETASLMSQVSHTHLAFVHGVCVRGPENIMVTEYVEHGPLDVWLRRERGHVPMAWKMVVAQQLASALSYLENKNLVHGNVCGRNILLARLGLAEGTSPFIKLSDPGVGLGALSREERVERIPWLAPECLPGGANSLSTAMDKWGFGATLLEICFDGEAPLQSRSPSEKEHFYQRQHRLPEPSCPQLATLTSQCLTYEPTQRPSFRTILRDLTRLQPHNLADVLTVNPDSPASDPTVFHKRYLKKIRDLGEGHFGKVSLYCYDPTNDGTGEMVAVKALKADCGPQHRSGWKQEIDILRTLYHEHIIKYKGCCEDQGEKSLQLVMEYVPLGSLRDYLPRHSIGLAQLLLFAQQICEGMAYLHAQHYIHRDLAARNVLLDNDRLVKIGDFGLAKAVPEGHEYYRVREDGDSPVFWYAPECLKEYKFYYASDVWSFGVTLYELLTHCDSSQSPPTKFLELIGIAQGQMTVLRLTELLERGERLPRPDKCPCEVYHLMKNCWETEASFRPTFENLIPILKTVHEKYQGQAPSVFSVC
Assay: Kinobeads assay with immunodetection, TYK2
Settings: Kinobeads assay, mixed Molt4/Ramos lysate; read-out: Inhibition values (IC50) Tyk2
Counter-ions that a name gives are not always drawn.
IC50 values by entry
measuredMetric: IC50

> print(dat)
                                    compound          obsvalue
 1  C=CS(=O)(=O)N1CCC[C@H]1CNc1nc(Nc2cnn(C)c2)ncc1Cl [Example 14]          < 100 nM
 2  Cn1cc(Nc2ncc(Cl)c(NC[C@H]3CCN(C(=O)CC#N)C3)n2)cn1 [Example 58]          < 100 nM
 3  CN(C)C(=O)Cn1cc(Nc2ncc(Cl)c(NC[C@H]3CCCN3S(C)(=O)=O)n2)cn1 [Example 68]          < 100 nM
 4  Cn1cc(Nc2ncc(Cl)c(NC[C@@H]3CCCN3S(C)(=O)=O)n2)cn1 [Example 12]          < 100 nM
 5  Cn1cc(Nc2ncc(Cl)c(NC[C@H]3CCCN(C(=O)CC#N)C3)n2)cn1 [Example 137]          < 100 nM
 6  Cc1cnc(Nc2cnn(C)c2)nc1NC[C@@H]1C[C@H](F)CN1C(=O)CCC#N [Example 104]          < 100 nM
 7  CCN1CCC[C@H]1CNc1nc(Nc2cnn(C)c2)ncc1Cl [Example 61]        > 10000 nM
 8  C=CS(=O)(=O)N1CC[C@@H](CNc2nc(Nc3cnn(C)c3)ncc2Cl)C1 [Example 31]    100 to 1000 nM
 9  C=CC(=O)N1CC[C@H](CNc2nc(Nc3cnn(C)c3)ncc2Cl)C1 [Example 22]    100 to 1000 nM
10  Cc1cnc(Nc2cnn(C)c2)nc1NC[C@H]1CCCN1 [Example 72, Hydrochloride]        > 10000 nM
11  CC(C)NC(=O)Cn1cc(Nc2nccc(NC[C@H]3CCCN3CCC#N)n2)cn1 [Example 83]          < 100 nM
12  Cc1cnc(Nc2cnn(C)c2)nc1NC[C@H]1CCN(C(=O)CCC#N)C1 [Example 111]          < 100 nM
13  Cl.Cn1cc(Nc2ncc(F)c(NC[C@@H]3CCCN3S(C)(=O)=O)n2)cn1 [Example 75, Hydrochloride]          < 100 nM
14  Cn1cc(Nc2ncc(Cl)c(NC[C@@H]3C[C@H](F)CN3C(=O)CCC#N)n2)cn1 [Example 110]    100 to 1000 nM
15  Cn1cc(Nc2ncc(Cl)c(NC[C@@H]3CCCN3CCC#N)n2)cn1 [Example 81]          < 100 nM
16  Cn1cc(Nc2ncc(Cl)c(NC[C@@H]3C[C@H](F)CN3CCCS(C)(=O)=O)n2)cn1 [Example 132]          < 100 nM
17  Cn1cc(Nc2ncc(F)c(NC[C@@H]3CCCN3)n2)cn1 [Example 71, Hydrochloride]  1000 to 10000 nM

---

Target: JAK1 (Homo sapiens)
Construct: endogenous in cells; mixed lysate 1:2
Assay: Kinobeads assay with immunodetection, JAK1
Details: Kinobeads assay, mixed Molt4/Ramos lysate; read-out: Inhibition values (IC50) JAK1
Structures can show the parent of a compound that is named as a salt.
measuredMetric: IC50

> print(dat)
                                    compound          obsvalue
 1  CC(C)NC(=O)Cn1cc(Nc2nccc(NC[C@H]3CCCN3CCC#N)n2)cn1  1000 to 10000 nM
 2  Cc1cnc(Nc2cnn(C)c2)nc1NC[C@@H]1C[C@H](F)CN1C(=O)CCC#N          < 100 nM
 3  Cn1cc(Nc2ncc(F)c(NC[C@H]3CCCN3)n2)cn1 [Example 70, Hydrochloride]  1000 to 10000 nM
 4  Cn1cc(Nc2ncc(Cl)c(NC[C@H]3CCCN(C(=O)CCC#N)C3)n2)cn1          < 100 nM
 5  Cn1cc(Nc2ncc(Cl)c(NC[C@H]3CCCN3CCO)n2)cn1    100 to 1000 nM
 6  C=CS(=O)(=O)N1CCCC[C@H]1CNc1nc(Nc2cnn(C)c2)ncc1Cl    100 to 1000 nM
 7  Cc1cnc(Nc2cnn(CC(F)F)c2)nc1NC[C@H]1CCN(C(=O)CCC#N)C1          < 100 nM
 8  CC(=O)N1CCC[C@H]1CNc1nc(Nc2cnn(CCO)c2)ncc1Cl    100 to 1000 nM
 9  Cc1cnc(Nc2cnn(CC(F)F)c2)nc1NC[C@@H]1CCCN1C(=O)CC#N          < 100 nM
10  CN(C)C(=O)Cn1cc(Nc2ncc(Cl)c(NC[C@@H]3CCCN3)n2)cn1  1000 to 10000 nM
11  Cn1cc(Nc2ncc(Cl)c(NC[C@H]3CCCN3C(=O)CO)n2)cn1          < 100 nM
12  Cc1cnc(Nc2cnn(C)c2)nc1NC[C@H]1CCN(C(=O)CCC#N)C1          < 100 nM
13  Cn1cc(Nc2nccc(NC[C@H]3CCCN3C(=O)CCC#N)n2)cn1          < 100 nM
14  Cc1cnc(Nc2cnn(C)c2)nc1NC[C@H]1CCCN1 [Example 72, Hydrochloride]  1000 to 10000 nM
15  Cn1cc(Nc2ncc(Cl)c(NC[C@H]3CCCN3CC#N)n2)cn1          < 100 nM
16   CCN1CCC[C@@H]1CNc1nc(Nc2cnn(C)c2)ncc1Cl    100 to 1000 nM
17  Cn1cc(Nc2ncc(F)c(NC[C@@H]3CCCN3)n2)cn1 [Example 71, Hydrochloride]  1000 to 10000 nM
18  CC(=O)N1CCC[C@@H]1CNc1nc(Nc2cnn(CCO)c2)ncc1Cl          < 100 nM
19  CC(=O)N1CCC[C@H]1CNc1nc(Nc2cnn(C)c2)ncc1Cl    100 to 1000 nM
20  CC(C)NC(=O)Cn1cc(Nc2nccc(NC[C@H]3CCCN3CCS(C)(=O)=O)n2)cn1    100 to 1000 nM
21  CC(=O)N1CCCC[C@H]1CNc1nc(Nc2cnn(C)c2)ncc1Cl  1000 to 10000 nM
22  Cn1cc(Nc2ncc(Cl)c(NCC3CCCN(C(=O)CC#N)C3)n2)cn1 (centres unmarked)          < 100 nM
23  CC(=O)N1CC(CNc2nc(Nc3cnn(CCO)c3)ncc2Cl)C1  1000 to 10000 nM
24  Cn1cc(Nc2ncc(Cl)c(NC[C@@H]3CCCN3CCS(C)(=O)=O)n2)cn1          < 100 nM
25  Cn1cc(Nc2ncc(Cl)c(NC[C@H]3CCCN3CCS(C)(=O)=O)n2)cn1          < 100 nM
26  Cc1cnc(Nc2cnn(CC(F)F)c2)nc1NC[C@@H]1C[C@H](F)CN1C(=O)CCC#N          < 100 nM
27    CCN1CCC[C@H]1CNc1nc(Nc2cnn(C)c2)ncc1Cl    100 to 1000 nM
28  C=CC(=O)N1CCC[C@H]1CNc1nc(Nc2cnn(C)c2)ncc1Cl  1000 to 10000 nM
29  Cc1cnc(Nc2cnn(CC(F)F)c2)nc1NC[C@H]1CCN(CCS(C)(=O)=O)C1          < 100 nM
30  Cn1cc(Nc2ncc(F)c(NC[C@H]3CCCN3CCC#N)n2)cn1    100 to 1000 nM
31  CNC(=O)Cn1cc(Nc2ncc(Cl)c(NC[C@H]3CCCN3S(C)(=O)=O)n2)cn1          < 100 nM
32  Cn1cc(Nc2ncc(Cl)c(NC[C@H]3CCCN3S(C)(=O)=O)n2)cn1          < 100 nM
33  Cc1cnc(Nc2cnn(CC(F)F)c2)nc1NC[C@H]1CCN(C(=O)CC#N)C1          < 100 nM
34  C=CS(=O)(=O)N1CCCC[C@@H]1CNc1nc(Nc2cnn(C)c2)ncc1Cl    100 to 1000 nM
35  CC(=O)N1CC[C@H](CNc2nc(Nc3cnn(CCO)c3)ncc2Cl)C1          < 100 nM

---

Target: JAK1 (Homo sapiens, UniProt P23458)
Construct: endogenous in cells; host or cells: Molt4 (ATCC CRL-1582) and Ramos (ATCC CRL-1596) cells; mixed lysate 1:2
Sequence (P23458 whole entry): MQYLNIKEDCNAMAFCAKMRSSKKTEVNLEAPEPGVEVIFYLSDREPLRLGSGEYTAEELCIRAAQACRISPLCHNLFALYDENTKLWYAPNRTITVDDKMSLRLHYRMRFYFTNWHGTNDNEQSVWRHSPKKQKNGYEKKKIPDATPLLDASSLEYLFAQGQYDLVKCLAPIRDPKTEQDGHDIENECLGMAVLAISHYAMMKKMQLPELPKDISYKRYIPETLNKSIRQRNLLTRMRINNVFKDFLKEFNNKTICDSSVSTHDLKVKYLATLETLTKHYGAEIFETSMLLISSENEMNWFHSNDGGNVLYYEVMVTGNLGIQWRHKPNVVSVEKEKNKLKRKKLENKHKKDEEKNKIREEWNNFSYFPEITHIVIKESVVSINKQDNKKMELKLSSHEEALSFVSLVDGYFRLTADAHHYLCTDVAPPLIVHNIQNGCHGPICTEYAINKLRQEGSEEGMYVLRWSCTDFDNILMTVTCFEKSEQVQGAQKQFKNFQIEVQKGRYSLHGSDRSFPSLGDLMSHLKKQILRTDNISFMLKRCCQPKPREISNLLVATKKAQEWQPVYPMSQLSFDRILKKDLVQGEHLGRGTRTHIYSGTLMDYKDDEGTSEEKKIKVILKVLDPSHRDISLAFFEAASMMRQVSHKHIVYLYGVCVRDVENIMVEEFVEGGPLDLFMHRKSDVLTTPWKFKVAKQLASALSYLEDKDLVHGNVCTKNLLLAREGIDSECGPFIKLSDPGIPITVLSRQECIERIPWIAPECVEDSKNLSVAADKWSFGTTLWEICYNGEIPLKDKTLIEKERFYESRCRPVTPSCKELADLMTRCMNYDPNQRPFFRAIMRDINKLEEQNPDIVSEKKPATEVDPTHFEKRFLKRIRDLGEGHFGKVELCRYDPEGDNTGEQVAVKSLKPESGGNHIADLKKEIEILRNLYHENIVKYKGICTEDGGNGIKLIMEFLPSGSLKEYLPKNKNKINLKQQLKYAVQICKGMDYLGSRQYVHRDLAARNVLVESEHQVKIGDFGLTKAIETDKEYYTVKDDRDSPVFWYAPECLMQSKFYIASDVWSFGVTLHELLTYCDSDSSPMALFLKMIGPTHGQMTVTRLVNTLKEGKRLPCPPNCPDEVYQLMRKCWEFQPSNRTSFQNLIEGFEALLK
Assay: Kinobeads assay with immunodetection, JAK1
Format: binding
Details: Kinobeads assay, mixed Molt4/Ramos lysate; read-out: Inhibition values (IC50) JAK1
measuredMetric: IC50

> print(dat)
                                   compound  measuredmetric        obsvalue
1  Cc1cnc(Nc2cnn(C)c2)nc1NC[C@H]1CCCN1CCS(C)(=O)=O            IC50        < 100 nM
2  CN1CCCC1CNc1nc(Nc2cnn(C)c2)ncc1Cl (stereo not drawn)            IC50  100 to 1000 nM
3  C=CC(=O)N1CCC[C@@H]1CNc1nc(Nc2cnn(CCO)c2)ncc1Cl            IC50        < 100 nM
4  Cn1cc(Nc2ncc(Cl)c(NC[C@@H]3C[C@H](F)CN3CCCS(C)(=O)=O)n2)cn1            IC50        < 100 nM
5  C=CC(=O)N1CCC[C@H]1CNc1nc(Nc2cnn(CCO)c2)ncc1Cl            IC50  100 to 1000 nM
6       Cn1cc(Nc2ncc(Cl)c(NCC3CCCCC3)n2)cn1            IC50  100 to 1000 nM
7  Cc1cnc(Nc2cnn(CC(F)F)c2)nc1NC[C@@H]1CCCN1C(=O)CCC#N            IC50        < 100 nM
8  CCS(=O)(=O)N1CCC[C@@H]1CNc1nc(Nc2cnn(C)c2)ncc1Cl            IC50        < 100 nM
9  Cc1cnc(Nc2cnn(C)c2)nc1NC[C@@H]1C[C@H](F)CN1C(=O)CC#N            IC50        < 100 nM
